Molecular target: human CPR (Homo sapiens, UniProt P16435)
Sequence (P16435 43-677 limits assumed): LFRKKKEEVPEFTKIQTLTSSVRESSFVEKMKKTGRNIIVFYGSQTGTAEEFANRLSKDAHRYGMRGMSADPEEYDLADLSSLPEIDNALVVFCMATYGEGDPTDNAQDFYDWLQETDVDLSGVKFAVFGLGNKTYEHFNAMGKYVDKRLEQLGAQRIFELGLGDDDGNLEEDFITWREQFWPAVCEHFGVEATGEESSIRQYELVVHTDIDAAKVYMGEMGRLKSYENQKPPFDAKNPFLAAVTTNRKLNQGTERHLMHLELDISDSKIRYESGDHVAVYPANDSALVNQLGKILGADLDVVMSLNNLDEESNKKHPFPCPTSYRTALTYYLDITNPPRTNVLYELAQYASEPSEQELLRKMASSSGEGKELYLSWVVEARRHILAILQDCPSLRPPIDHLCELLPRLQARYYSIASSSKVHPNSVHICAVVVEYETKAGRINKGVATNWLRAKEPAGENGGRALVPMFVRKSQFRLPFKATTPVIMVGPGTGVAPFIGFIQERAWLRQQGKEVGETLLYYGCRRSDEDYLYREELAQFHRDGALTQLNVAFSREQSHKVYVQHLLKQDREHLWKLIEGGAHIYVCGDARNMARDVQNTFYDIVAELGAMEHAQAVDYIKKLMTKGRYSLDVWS
QUANTITY_KIND: pIC50
One number for each entry, as −log10 of the molar value.

Query block: # query: pIC50 of entry c1ccc([I+]c2ccccc2)cc1 [DPI, diphenyliodonium chloride]
Result block: 3.44
